Biological target: KCNQ2/3 channels (Homo sapiens, UniProt O43525+O43526)
Construct: expressed in transfected cells; host or cells: CHO-K1
Test: Fluorescence assay using a voltage-sensitive dye (fluorimetry)
Format: cell-based
Details: CHO-K1 cells expressing KCNQ2/3; relative to retigabine = 100%; negative values = antagonistic; read-out: Fluorimetry % efficacy (I/EC50, retigabine = 100%)
Method: Pharmacological Experiments Fluorescence Assay Using a Voltage-Sensitive Dye […] The fluorescence measurements are carried out with a BMG Labtech FLUOstar™, BMG Labtech NOVOstar™ or BMG Labtech POLARstar™ instrument (525 nm excitation, 560 nm emission, bottom-read mode). […] The fluorescence intensity of the dye is then measured for 5 min and the fluorescence value F1 of each well is thus determined at a given, constant time. […]
Exercise: state measured Emax for each of the compounds provided.
Just the number in %, nothing appended.

Query :: Form field - read-out: Emax; system: KCNQ2/3 channels (Homo sapiens, UniProt O43525+O43526); submitted item: O=C(Cc1cc2ccccc2s1)Nc1cccnc1SCCS(=O)(=O)c1cccc(C(F)(F)F)c1 [Example 59]
Result :: 139

Query :: Provide value of Emax for this record tested with KCNQ2/3 channels (Homo sapiens, UniProt O43525+O43526): O=C(Nc1cccnc1SCCS(=O)(=O)c1cccc(C(F)(F)F)c1)C1CCCCO1 (centres unmarked) [Example 48]
Result :: 93

Query :: Emax of O=C(CCc1cccs1)Nc1cccnc1SCCS(=O)(=O)c1cccc(C(F)(F)F)c1 [Example 26] on KCNQ2/3 channels (Homo sapiens, UniProt O43525+O43526)?
Result :: 82

Query :: Which Emax is reported with KCNQ2/3 channels (Homo sapiens, UniProt O43525+O43526) for this entry: O=C(CC1CCCCC1)Nc1cccnc1SCCS(=O)(=O)c1ccccc1 [Example 1] ?
Result :: 172

Query :: Hi! What's the reported Emax for O=C(Nc1cccnc1SCCS(=O)(=O)c1cccc(C(F)(F)F)c1)c1cccc(O)c1 [Example 47] on KCNQ2/3 channels (Homo sapiens, UniProt O43525+O43526)?
Result :: 95

Query :: Lookup: Emax / KCNQ2/3 channels (Homo sapiens, UniProt O43525+O43526) / O=C(Nc1cccnc1SCCS(=O)(=O)c1cccc(C(F)(F)F)c1)c1cccs1 [Example 18]
Result :: 43

Query :: # returns recorded Emax (system: KCNQ2/3 channels (Homo sapiens, UniProt O43525+O43526)) for Cc1ccnc(SCCS(=O)(=O)c2cccc(C(F)(F)F)c2)c1NC(=O)Cc1cccs1 [Example 56]
Result :: 98.1

Query :: API: value(readout=Emax, system=KCNQ2/3 channels (Homo sapiens, UniProt O43525+O43526)) for record O=C(Cc1ccncc1)Nc1cccnc1SCCS(=O)(=O)c1cccc(C(F)(F)F)c1 [Example 36]
Result :: 38

Query :: Value wanted: Emax (KCNQ2/3 channels (Homo sapiens, UniProt O43525+O43526)) of entry O=C(CC1CCCCCC1)Nc1cccnc1SCCS(=O)(=O)c1cccc(C(F)(F)F)c1 [Example 49]
Result :: 108

Query :: What value of Emax on KCNQ2/3 channels (Homo sapiens, UniProt O43525+O43526) does O=C(CC1CCCCO1)Nc1cccnc1SCCS(=O)(=O)c1cccc(C(F)(F)F)c1 (centres unmarked) [Example 39] have?
Result :: 139

Query :: Query Emax on KCNQ2/3 channels (Homo sapiens, UniProt O43525+O43526) for CC(C)(C)CC(=O)Nc1cccnc1SCCOc1ccc(F)cc1 [Example 63]
Result :: 119

Query :: Provide value of Emax for this record tested with KCNQ2/3 channels (Homo sapiens, UniProt O43525+O43526): O=C(Cc1ccc(O)cc1)Nc1cccnc1SCCS(=O)(=O)c1cccc(C(F)(F)F)c1 [Example 13]
Result :: 46

Query :: Quick check: Emax on KCNQ2/3 channels (Homo sapiens, UniProt O43525+O43526), item O=C(Cc1cccs1)Nc1cccnc1SCCOc1cccc(C(F)(F)F)c1 [Example 22] ?
Result :: 155

Query :: Any idea what Emax came out for O=C(CCC1CCCC1)Nc1cccnc1SCCS(=O)(=O)c1cccc(C(F)(F)F)c1 [Example 28] on KCNQ2/3 channels (Homo sapiens, UniProt O43525+O43526)?
Result :: 152

Query :: Please provide the recorded Emax for O=C(CCC1CCc2ccccc2C1)Nc1cccnc1SCCS(=O)(=O)c1cccc(C(F)(F)F)c1 (centres unmarked) [Example 57] , tested on KCNQ2/3 channels (Homo sapiens, UniProt O43525+O43526).
Result :: 134

Query :: Report Emax for O=C1CCCC(CC(=O)Nc2cccnc2SCCS(=O)(=O)c2cccc(C(F)(F)F)c2)C1 (centres unmarked) [Example 55] tested on KCNQ2/3 channels (Homo sapiens, UniProt O43525+O43526).
Result :: 84.8

Query :: Please provide the recorded Emax for CC(C)(C)CC(=O)Nc1cccnc1SCCCc1ccc(F)cc1 [Example 66] , tested on KCNQ2/3 channels (Homo sapiens, UniProt O43525+O43526).
Result :: 176

###

molecular target: KCNQ2/3 channels (Homo sapiens, UniProt O43525+O43526); construct: expressed in transfected cells; host or cells: CHO-K1; assay: Fluorescence assay using a voltage-sensitive dye (fluorimetry); assay type: cell-based; settings: CHO-K1 cells expressing KCNQ2/3; relative to retigabine = 100%; negative values = antagonistic; read-out: Fluorimetry % efficacy (I/EC50, retigabine = 100%)
Label True when Emax is strictly below 80%; otherwise label False.

Query :: Is 80% strictly greater than the molecule's reported Emax? molecule: O=C(CCC1CCCCCC1)Nc1cccnc1SCCS(=O)(=O)c1cccc(C(F)(F)F)c1
Result :: False

Query :: Lab note: Emax threshold 80%. Does this molecule come in strictly under it? O=C(Nc1cccnc1SCCS(=O)(=O)c1cccc(C(F)(F)F)c1)c1ccccc1O
Result :: True

Query :: Please determine if O=C(CCC1CCCCC1)Nc1cccnc1SCCS(=O)(=O)c1cccc(C(F)(F)F)c1 is below 80% in terms of Emax.
Result :: False

Query :: Hello, is Emax of the following molecule strictly smaller than 80%? O=C(Cc1ccc2ccccc2c1)Nc1cccnc1SCCS(=O)(=O)c1cccc(C(F)(F)F)c1
Result :: False

Query :: Lab log: compare recorded Emax with 80%; is it strictly lower for COc1ccc(CC(=O)Nc2cccnc2SCCS(=O)(=O)c2cccc(C(F)(F)F)c2)cc1 ?
Result :: True

###

target: KCNQ2/3 channels (Homo sapiens, UniProt O43525+O43526); assay: Fluorescence assay using a voltage-sensitive dye (fluorimetry); settings: CHO-K1 cells expressing KCNQ2/3; agonistic activity
Kindly apply the following: YES if EC50 is less than 200 nM, NO in every other case.

Query :: Lab note: EC50 threshold 200 nM. Does this molecule come in strictly under it? O=C(Nc1cccnc1SCCS(=O)(=O)c1cccc(C(F)(F)F)c1)c1ccc(F)cc1O [Example 51]
Result :: YES

Query :: Problem: For the molecule CC(C)(C)CC(=O)Nc1cccnc1SCCOc1ccc(F)cc1 [Example 63] , is EC50 under 200 nM?
Result :: NO

Query :: Bench note: check whether O=C(CCC1CCCCC1)Nc1cccnc1SCCS(=O)(=O)c1cccc(C(F)(F)F)c1 [Example 41] shows EC50 below 200 nM
Result :: YES

Query :: Just wondering, is EC50 of CC(C)(C)CC(=O)Nc1cccnc1SCCCc1ccc(F)cc1 [Example 66] below 200 nM?
Result :: YES

Query :: Hello, I'm reviewing records and need to know if EC50 of O=C(CCC1CCc2ccccc2C1)Nc1cccnc1SCCS(=O)(=O)c1cccc(C(F)(F)F)c1 (centres unmarked) [Example 57] is below 200 nM. Could you check?
Result :: YES

Query :: Dear reviewer, please state whether O=C(Nc1cccnc1SCCS(=O)(=O)c1cccc(C(F)(F)F)c1)C1CCCCO1 (centres unmarked) [Example 48] has EC50 strictly beneath 200 nM.
Result :: YES

Query :: Report whether reported EC50 is lower than 200 nM (strictly) for O=C(Cc1ccc2ccccc2c1)Nc1cccnc1SCCS(=O)(=O)c1cccc(C(F)(F)F)c1 [Example 24]
Result :: YES

Query :: Quick check: does O=C(CCC1CCCC1)Nc1cccnc1SCCS(=O)(=O)c1cccc(C(F)(F)F)c1 [Example 28] have EC50 under 200 nM?
Result :: NO

###

Field: IC50. Provide a value for each of the compounds that follow.
Target: KCNQ2/3 channels (Homo sapiens, UniProt O43525+O43526)
Assay: Fluorescence assay using a voltage-sensitive dye (fluorimetry)
Conditions: CHO-K1 cells expressing KCNQ2/3; antagonistic activity
Method: Pharmacological Experiments Fluorescence Assay Using a Voltage-Sensitive Dye […] The fluorescence measurements are carried out with a BMG Labtech FLUOstar™, BMG Labtech NOVOstar™ or BMG Labtech POLARstar™ instrument (525 nm excitation, 560 nm emission, bottom-read mode). […] The fluorescence intensity of the dye is then measured for 5 min and the fluorescence value F1 of each well is thus determined at a given, constant time. […]
Report the figure in nM without appending any unit label.

Query :: Give its IC50 value. Item: COc1ccccc1CC(=O)Nc1cccnc1SCCS(=O)(=O)c1cccc(C(F)(F)F)c1
Result :: 192

Query :: // query IC50 value for entry Cc1cc(C)cc(C(C)C(=O)Nc2cccnc2SCCS(=O)(=O)c2ccccc2)c1 (centres unmarked)
Result :: 322

Hello, the source for this data is patent US8247573B2, in case you need it.
